Assay: small-molecule binders of probe aLefty1, primary screen, biochemical, small-molecule microarray, 635/667 nm fluorescence (AID 1153);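 further: score merges spot fluorescence with signal-to-noise ratio from the scanned slide images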
Settings: higher = more signal
valueKind: composite z-score
The reply should be a number, written without any unit.

Take a look at these entries with their results.
# input Using the record for "C#C[C@H](O[Si](C#Cc1ccc(Oc2ccccc2)cc1)(C(C)C)C(C)C)c1ccccc1" , report its composite z-score.
# output -0.104

# input Using the record for "CO[C@H]1O[C@H](CO)[C@@H](OC(=O)Nc2ccccc2)[C@H](OC(=O)Nc2ccccc2)[C@@H]1OC(=O)Nc1ccccc1" , report its composite z-score.
# output -0.369

# input Using the record for "C=C[C@H](C)[C@@H](OC(=O)Nc1ccc(OC)cc1)c1ccc(O)c2ccccc12" , report its composite z-score.
# output 0.0903

# input Using the record for "COc1ccc(C#Cc2ccc3c(c2)[C@]2(C(=O)N3)[C@H](C(=O)NC[C@H](O)c3ccccc3)[C@H]3C(=O)O[C@H](c4ccccc4)[C@H](c4ccccc4)N3[C@@H]2c2ccc(O)cc2)cc1" , report its composite z-score.
# output -0.0984

# input Using the record for O=C1OCCC/C=C\[C@H]2OC34C=CCN(Cc5ccccc5)C(=O)[C@H]3N(CCCO)C(=O)[C@@H]4C12 (stereo not given in full) , report its composite z-score.
# output 0.042

# input Using the record for "COC(=O)[C@@]1(CCC(=O)OC(C)(C)C)N=C(c2ccc(OCCCO)cc2)O[C@H]1c1ccccc1N=[N+]=[N-]" , report its composite z-score.
# output -0.39

More entries:
# input Using the record for "CCCC[C@@H]1C[C@H]1[C@@H](NC(=O)c1ccco1)c1ccccc1C(F)(F)F" , report its composite z-score.
# output 2.47

# input Using the record for CC1CC/C=C\[C@H]2OC34C=CCN(Cc5ccccc5)C(=O)[C@H]3N(CCCO)C(=O)[C@@H]4C2C(=O)O1 (stereo not given in full) , report its composite z-score.
# output -0.147

# input Using the record for "CCOC(=O)C1=CC[C@@H](c2ccccc2)N(S(=O)(=O)c2ccc(C)cc2)[C@H]1c1ccccc1C" , report its composite z-score.
# output 0.589

# input Using the record for "Cc1ccc([C@@H]2C[C@@H](Sc3ccccc3)[C@H](C(=O)O)CN2S(=O)(=O)c2ccc(C)cc2)cc1" , report its composite z-score.
# output 0.481

# input Using the record for "NC(=O)[C@@H]1[C@H]2C(=O)O[C@H](c3ccccc3)[C@H](c3ccccc3)N2[C@H](c2ccc(O)cc2)[C@@]12C(=O)Nc1ccccc12" , report its composite z-score.
# output 0.157

# input Using the record for "C=C(COC)/C(=C/C[C@H](OC(C)=O)c1ccc(CO)o1)c1cc(C(=O)OC)ccc1OC" , report its composite z-score.
# output -0.193

# input Using the record for CCN(CC)c1ccc(N2CC=CC34O[C@@H]5C=CCCOC(=O)C5[C@H]3C(=O)N(CCCCCCO)[C@@H]4C2=O)cc1 (stereo not given in full) , report its composite z-score.
# output -0.0361

# input Using the record for CC(=O)n1cc(C(O)C2C=CC3C(=O)N(c4ccccc4)C(=O)C3N2Nc2ccc([N+](=O)[O-])cc2)c2ccccc21 (stereo not given) , report its composite z-score.
# output 0.272

# input Using the record for "C=C(CCCC)/C(=C/C[C@H](OC(C)=O)c1ccccc1OCCO)c1cc(C(=O)OC)ccc1OC" , report its composite z-score.
# output -0.0046

Recorded values, source PubChem BioAssay.
